These entries and their values trace back to paper PMC9673804.

Listed next: entries and their corresponding inhibition at 1 µM.
# STUDY SYSTEM: human DHFR enzyme (Homo sapiens)
# Construct: purchased MyBioSource MBS9312476
# Sequence (P00374 1-187): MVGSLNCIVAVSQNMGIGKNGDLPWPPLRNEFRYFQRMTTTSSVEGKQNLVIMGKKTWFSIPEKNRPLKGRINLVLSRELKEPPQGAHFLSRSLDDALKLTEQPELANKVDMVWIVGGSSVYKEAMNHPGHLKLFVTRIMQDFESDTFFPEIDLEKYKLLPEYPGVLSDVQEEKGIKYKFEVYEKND
# ASSAY NAME: Elisa assay of human DHFR enzyme
# Type: biochemical
# CONDITION INFO: conc 1 uM
Answer with a number only, understood to be in %.

Recorded inhibition at 1 µM, per entry:
I have this compound here, O=C(NC(Cc1ccccc1)C(=O)O)c1ccc(Nc2ncnc3c2cnn3-c2ccccc2)cc1 (centres unmarked) [Compound 7l] , and I need its recorded inhibition at 1 µM.
68

I have this compound here, O=C(NC(Cc1c[nH]cn1)C(=O)O)c1ccc(Nc2ncnc3c2cnn3-c2ccccc2)cc1 (centres unmarked) [Compound 7i] , and I need its recorded inhibition at 1 µM.
63

I have this compound here, CC(NC(=O)c1ccc(Nc2ncnc3c2cnn3-c2ccccc2)cc1)C(=O)O (centres unmarked) [Compound 7b] , and I need its recorded inhibition at 1 µM.
20

I have this compound here, CC(C)C(NC(=O)c1ccc(Nc2ncnc3c2cnn3-c2ccccc2)cc1)C(=O)O (centres unmarked) [Compound 7c] , and I need its recorded inhibition at 1 µM.
65

I have this compound here, O=C(O)C1CCCN1C(=O)c1ccc(Nc2ncnc3c2cnn3-c2ccccc2)cc1 (centres unmarked) [Compound 7j] , and I need its recorded inhibition at 1 µM.
64

I have this compound here, N=C(N)NCCCC(NC(=O)c1ccc(Nc2ncnc3c2cnn3-c2ccccc2)cc1)C(=O)O (centres unmarked) [Compound 7f] , and I need its recorded inhibition at 1 µM.
66

New cases:
I have this compound here, CSCCC(NC(=O)c1ccc(Nc2ncnc3c2cnn3-c2ccccc2)cc1)C(=O)O (centres unmarked) [Compound 7h] , and I need its recorded inhibition at 1 µM.
36

I have this compound here, O=C(O)CNC(=O)c1ccc(Nc2ncnc3c2cnn3-c2ccccc2)cc1 [Compound 7a] , and I need its recorded inhibition at 1 µM.
30

###

# System: human prostate cancer (PC-3)
# ASSAY NAME: SRB cytotoxicity assay, PC-3
# Format: cell-based
# CONDITION INFO: PC-3 cells
ATTRIBUTE MEASURED: pIC50
Formally, pIC50 is defined as -log10 of the concentration c, with c in mol/L.

Recorded pIC50, per entry:
I have this compound here, CN(Cc1cnc2nc(N)nc(N)c2n1)c1ccc(C(=O)N[C@@H](CCC(=O)O)C(=O)O)cc1 [Methotrexate, methotrexate, reference compound] , and I need its recorded pIC50.
4.37

I have this compound here, CC(C)C(NC(=O)c1ccc(Nc2ncnc3c2cnn3-c2ccccc2)cc1)C(=O)O (centres unmarked) , and I need its recorded pIC50.
4.95

I have this compound here, O=C(NC(Cc1c[nH]c2ccccc12)C(=O)O)c1ccc(Nc2ncnc3c2cnn3-c2ccccc2)cc1 (centres unmarked) , and I need its recorded pIC50.
4.70

New cases:
I have this compound here, CSCCC(NC(=O)c1ccc(Nc2ncnc3c2cnn3-c2ccccc2)cc1)C(=O)O (centres unmarked) , and I need its recorded pIC50.
4.77

I have this compound here, O=C(NC(Cc1c[nH]cn1)C(=O)O)c1ccc(Nc2ncnc3c2cnn3-c2ccccc2)cc1 (centres unmarked) , and I need its recorded pIC50.
4.89
